Experimental Details: Solubility in 1% SDS in water by LC-UV
Type: physicochemical
Experimental Conditions: 1% SDS in water, aqueous with cosolvent or surfactant or cyclodextrin, thermodynamic from solid, after 24 hours rotation, ambient temperature
Endpoint Label: solubility at 24 h

Please give measured solubility at 24 h of the following entry: COc1cc([C@@H]2c3cc4c(cc3[C@H](O)[C@H]3COC(=O)[C@@H]23)OCO4)cc(OC)c1OC
700 µg/mL

* * *

Experimental Details: Powder dissolution profiling (intrinsic dissolution rate and apparent solubility) in PhB 6.5 and FeSSIF pH 6.5
Experimental Conditions: 37 °C, pH 6.5, aqueous buffer, thermodynamic from solid, Apparent Solubility assay 2, PhB 6.5, 37° C.; assay time 29 hours (value obtained after 50 minutes); mean ± SD, triplicate
Endpoint Label: solubility at 50 min (µg/mL)
The reply should be a number in µg/mL, with the unit left off.

Please give measured solubility at 50 min of the following entry: COc1cc([C@@H]2c3cc4c(cc3[C@H](O)[C@H]3COC(=O)[C@@H]23)OCO4)cc(OC)c1OC [polymorph C, picropodophyllin]
5.81
